Documented TGI across a set of compounds
Tested on: HOP-92 NSCLC
Experiment: NCI tumour cell line growth inhibition, 48 h
quantity_measured: TGI (µM)

> print(dat)
                                    compound  value.prefix  experimental.result
 1  FC(F)(F)Oc1cccc(-c2cc(NCCCCCCNc3cc(-c4cccc(OC(F)(F)F)c4)nc4ccc(N5CCCC5)cc34)c3cc(N4CCCC4)ccc3n2)c1             =                 3.18
 2                OCc1cn(Cc2ccccc2)c2ccccc12             =                 22.9
 3  CSC1=Nc2c(c(C)c(C)n2COC(CO)CO)C2=NC(=O)CN12             >                  100
 4  COc1ccc2c(N)ncc(C#Cc3cc(C(=O)Nc4ccc(CN5CCN(C)CC5)c(C(F)(F)F)c4)cnc3C)c2c1             =                 3.87
 5  O=C1[C@@H]2C(c3c(Cl)cccc3Cl)=NO[C@@H]2C(=O)N1c1ccc(Cc2ccc(N3C(=O)[C@H]4C(c5c(Cl)cccc5Cl)=NO[C@H]4C3=O)cc2)cc1             >                  100
 6     CC(=O)c1ccc(Oc2c3ccccc3nc3ccccc23)cc1             =                 25.6
 7  O=c1/c(=C/c2ccccc2[N+](=O)[O-])sc2nnc(-c3cccnc3)n12             >                  100
 8  [N-]=[N+]=CC(=O)C1CCCN1C(=O)c1ccccc1 (stereo not given)             >                   10
 9  O=C1/C(=C/c2ccc(Cl)c(Cl)c2)CN(C(=O)CCN2CCC(=NO)CC2)C/C1=C\c1ccc(Cl)c(Cl)c1             =                 3.82
10   O=c1c2ccccc2sc2c(CO)ccc(NCCN3CCCCC3)c12             =                 20.9
